Measurement protocol: Acute intravenous toxicity in mice
Condition info: mouse, in vivo, triethanolamine salt, aqueous solution, test solution 2% w/v, observed 7 days
In plain terms, low LD50 at 168 h, meaning strictly below 300 mg/kg, gives y, and everything else gives n.

- Smiles text: "CCCOc1ccc(NC=C(C(C)=O)C(=O)OCC)cc1-c1nc2[nH]nnc2c(=O)[nH]1"
  Discrete label: "y"
- Smiles text: "CCCOc1ccc(NC2=C(C(=O)OCC)CCC2)cc1-c1nc2[nH]nnc2c(=O)[nH]1"
  Discrete label: "y"
- Smiles text: "CCCOc1ccc(NC=C(C(=O)OC)C(=O)OC)cc1-c1nc2[nH]nnc2c(=O)[nH]1"
  Discrete label: "y"
- Smiles text: "CCCOc1ccc(NC=C(C#N)C(=O)OCC)cc1-c1nc2[nH]nnc2c(=O)[nH]1"
  Discrete label: "y"
- Smiles text: "CCCOc1ccc(N=NC(C(=O)OCC)C(=O)OCC)cc1-c1nc2[nH]nnc2c(=O)[nH]1"
  Discrete label: "y"
- Smiles text: "CCCOc1ccc(N/C(=C\\C(=O)OC)C(=O)OC)cc1-c1nc2[nH]nnc2c(=O)[nH]1"
  Discrete label: "n"
